study_target: OTUB1 (UniProt Q96FW1)
Sequence (Q96FW1 whole entry, the tested form may be a part): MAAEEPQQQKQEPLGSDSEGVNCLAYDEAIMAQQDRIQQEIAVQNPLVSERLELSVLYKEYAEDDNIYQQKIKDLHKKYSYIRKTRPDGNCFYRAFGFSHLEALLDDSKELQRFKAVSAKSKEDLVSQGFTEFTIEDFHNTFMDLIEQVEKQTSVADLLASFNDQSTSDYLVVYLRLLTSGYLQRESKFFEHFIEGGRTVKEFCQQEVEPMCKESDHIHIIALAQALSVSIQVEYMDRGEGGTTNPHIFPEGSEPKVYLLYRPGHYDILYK
test_details: log2 ratio of Biotin-Ahx-Ub-VS probe labelling (fragment/DMSO); higher = less target engagement (more negative = stronger competition), active = hit call of the paper (q ≤ 0.05, log2 ratio ≤ -1)
condition_summary: compound concentration: 200 uM; treatment time: 3 h
Parameter class (string): assigned from measured log2 ratio of Biotin-Ahx-Ub-VS probe labelling. Ranges: one = under -0.3, two = from -0.3 up to 0.01, three = 0.01 and over

Completed entries (count: 8):
CC(NC(=O)CCl)c1cccc2ccccc12 (centres undefined); one
Cc1n[nH]c(=O)c2c(NC(=O)CCl)oc(C)c12; three
Cc1ccc(N(CCC#N)C(=O)CCl)cc1C; two
O=C(CCl)NCCC1=CCCCC1; three
COc1ccc(Cl)cc1NC(=O)CCl; one
Cl.Cn1nccc1C(NC(=O)CCl)c1ccccc1 (centres undefined); two
Cl.O=C(CCl)NCc1cc2c(nc1O)CCCC2; two
Cl.O=C(CCl)NCc1ccnc(Oc2ccccc2F)c1; two

Exam item: assign O=C(CCl)NCCc1ccc(F)cc1 to the correct category.
two

Again, but for O=C(CN1CCN(C(=O)CCl)CC1)Nc1cccc(F)c1
two

What about CC(c1ccccc1)N(C)C(=O)CCl (centres undefined) ?
three

What do you have for Cc1nc(CN2CCCN(C(=O)CCl)CC2)no1.Cl ?
three

Param item: Cc1nc(CC2CCN(C(=O)CCl)CC2)no1
one

What would you report for O=C(CCl)Nc1cccc2ncccc12 ?
three
